Where do the numbers come from? From PubChem BioAssay (EPA / NIEHS).

Read-out: ABC Transporter (ABCB11), ABCB11 (gene 8647)
Test: LTEA_HepaRG_ABCB11: Life Technologies and Expression Analysis (LTEA) Assay for ABC Transporter (ABCB11) using HepaRG (AID 2283463)
Details: mRNA level, 48 h; actives raise or lower the signal
Active and inactive are the calls of the source. Rule for the calls: active = hit-call score of the fitted dose curve at least 0.9, where 1 is the maximum; inactive = score below 0.9.
Classes used: TRUE = active, FALSE = inactive

| Molecular String | Category |
| --- | --- |
| CCCCCCCC/C=C\CCCCCCCC(=O)OC[C@@H](O)[C@H]1OC[C@H](O)[C@H]1O | FALSE |
| CCOC(N)=O | FALSE |
| CCCCCCCCCC | FALSE |
| CCCCCOC(C)=O | FALSE |
| COc1cc(C(C)C)c2c(c1)S(=O)(=O)N(COc1cc(=O)n3cccc(OCCN4CCCCC4)c3n1)C2=O | TRUE |
| CC(=O)c1ccccc1 | FALSE |
| OC[C@H]1O[C@@](CO)(O[C@H]2O[C@H](CO)[C@@H](O)[C@H](O)[C@H]2O)[C@@H](O)[C@@H]1O | FALSE |
| CCc1ccc(O)c(C(C)(C)C)c1 | FALSE |
| NC(N)=O | FALSE |
| OCCNCCO | TRUE |
| OCc1ccccc1 | FALSE |

* * *

Read-out: CD40, CD40 (gene 958)
Assay: BSK_SAg_CD40: BioMAP Diversity Plus: SAg Assay for CD40 Biomarker Activity (AID 2283088)
Conditions: primary human HUVEC with PBMC; actives raise or lower the signal
Active and inactive are the calls of the source. The calls were made as follows: active = hit-call score of the fitted dose curve at least 0.9, where 1 is the maximum; inactive = score below 0.9.

| Compound | AC50 |
| --- | --- |
| OC[C@H]1O[C@@](CO)(O[C@H]2O[C@H](CO)[C@@H](O)[C@H](O)[C@H]2O)[C@@H](O)[C@@H]1O | inactive |
| NC(N)=O | inactive |
| CCOc1ccc2[nH]cc(C(=O)NCc3ccccc3)c(=O)c2n1 | inactive |
| c1ccc2cc3ccccc3cc2c1 | inactive |
| CC(C)CC(C)O (stereo not drawn) | inactive |
| COc1cc2c(c(OC)c1OC)-c1ccc(OC)c(=O)cc1[C@@H](NC(C)=O)CC2 | 0.218 µM (active) |
| NNC(=O)c1ccncc1 | inactive |
| CC(C)CCCCCCOC(=O)C1CCCCC1C(=O)OCCCCCCC(C)C (stereo not drawn) | inactive |
| O=C(O)[C@H](O)[C@@H](O)C(=O)O | inactive |
| Cc1cccc(O)c1C | inactive |
| C=CCc1cc(S(=O)(=O)c2ccc(O)c(CC=C)c2)ccc1O | 11.6 µM (active) |
| Cn1c(=O)c2[nH]cnc2n(C)c1=O | inactive |
| CCOC(N)=O | inactive |

* * *

Test: BSK_3C_Vis: BioMAP Diversity Plus: 3C Assay for Morphology Visualization (AID 2283025);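 note: fitted both ways so gain or loss versus DMSO counts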
Conditions: primary human endothelial cells (HUVEC)
Experimental: BSK_3C is a cell-based, multiplexed-readout assay that uses umbilical vein endothelium, a human vascular primary cell, with measurements taken at 24 hours after chemical dosing in a 96-well plate.BSK_3C_Vis is an assay component measured in the BSK_3C assay. It measures NA related to cell morphology using light microscopy technology.Data from the assay component BSK_3C_Vis was analyzed into 1 assay endpoint. […]
The source made the active and inactive calls. Rule for the calls: active = hit-call score of the fitted dose curve at least 0.9, where 1 is the maximum; inactive = score below 0.9.
Labels: 1 for active, 0 for inactive

| Molecular String | Category |
| --- | --- |
| O=C(O)[C@H](O)[C@@H](O)C(=O)O | 0 |
| S=P(N1CC1)(N1CC1)N1CC1 | 0 |
| Cc1ncc([C@@H](CCCCCCc2ccc3c(n2)NCCC3)CC(=O)O)cn1 | 0 |
| CCCCCCCCCCCCCCCCOS(=O)(=O)O | 0 |
| C[C@]12C=CC(=O)C=C1CC[C@H]1[C@@H]3C[C@@H](O)[C@](O)(C(=O)CO)[C@@]3(C)C[C@H](O)[C@@]12F | 0 |
| Nc1ccn([C@@H]2O[C@H](CO)[C@@H](O)[C@@H]2O)c(=O)n1 | 1 |
| OC[C@H]1O[C@@](CO)(O[C@H]2O[C@H](CO)[C@@H](O)[C@H](O)[C@H]2O)[C@@H](O)[C@@H]1O | 0 |
| O=S(=O)(O)c1ccc(N=Nc2c(O)ccc3cc(S(=O)(=O)O)ccc23)cc1 | 0 |
| O=C(O)c1cccc(C(=O)O)c1 | 0 |
| Cc1nccn1-c1ccc(Sc2cccc(C3(C(N)=O)CCOCC3)c2)cc1 | 0 |
| NC(=O)N1c2ccccc2C=Cc2ccccc21 | 0 |
| O=C1CN(N=Cc2ccc([N+](=O)[O-])o2)C(=O)N1 | 0 |
| c1ccc2c(c1)-c1cccc3c1c-2cc1ccccc13 | 0 |
| CCCCCCOC(=O)CC(CC(=O)OCCCCCC)(OC(=O)CCC)C(=O)OCCCCCC | 0 |
| CC(C)C(=O)Nc1ccc([N+](=O)[O-])c(C(F)(F)F)c1 | 0 |
| CCCCOC(=O)c1ccccc1 | 0 |
| Cn1cc[nH]c1=S | 0 |
| CNC(C)=O | 0 |
| NC(N)=O | 0 |
| OCC(CO)(CO)CO | 0 |
| NNC(=O)c1ccncc1 | 0 |
| COS(C)(=O)=O | 0 |
| O=C(NO)C1(NS(=O)(=O)c2ccc(Oc3ccc(F)cc3)cc2)CCOCC1 | 0 |
| C[C@@H](Oc1ccc(CNC(=O)c2cccnc2Oc2ccc3c(c2)OCO3)c(F)c1)C(=O)O | 0 |
| COCc1nnc(-c2ccc[n+]([O-])c2)n1-c1c(Cl)c(Cl)cc2[nH]c(=O)c(=O)[nH]c12 | 0 |

* * *

Read-out: Transforming growth factor beta 1 (TGFb1), TGFB1 (gene 7040)
Experiment: BSK_KF3CT_TGFb1: BioMAP Diversity Plus: KF3CT Assay for Transforming growth factor beta 1 (TGFb1) Biomarker Activity (AID 2283072)
Conditions: primary human keratinocytes with fibroblasts; actives raise or lower the signal
Active and inactive are the calls of the source. How the source made its calls: active means hit-call score of the fitted dose curve at least 0.9, where 1 is the maximum; inactive means score below 0.9.
Outcomes: 1 (yes) (active), 0 (no) (inactive)

| Molecule | Category |
| --- | --- |
| O=C(NO)C1(NS(=O)(=O)c2ccc(Oc3ccc(F)cc3)cc2)CCOCC1 | 0 (no) |
| NNC(=O)c1ccncc1 | 0 (no) |
| C[C@@H](Oc1ccc(CNC(=O)c2cccnc2Oc2ccc3c(c2)OCO3)c(F)c1)C(=O)O | 0 (no) |
| O=C1CN(N=Cc2ccc([N+](=O)[O-])o2)C(=O)N1 | 0 (no) |
| CCCCOC(=O)c1ccccc1 | 0 (no) |
| Cn1cc[nH]c1=S | 0 (no) |
| CCOc1ccc2[nH]cc(C(=O)NCc3ccccc3)c(=O)c2n1 | 0 (no) |
| NC(=O)N(O)[C@@H]1COc2cc(OCc3ccccc3)ccc21 | 0 (no) |
| CC(C)CC(C)O (stereo not given) | 0 (no) |
| Cc1nccn1-c1ccc(Sc2cccc(C3(C(N)=O)CCOCC3)c2)cc1 | 0 (no) |
| COc1cc(C(C)C)c2c(c1)S(=O)(=O)N(COc1cc(=O)n3cccc(OCCN4CCCCC4)c3n1)C2=O | 0 (no) |
| CCCCCCCCCCCCCCCCOS(=O)(=O)O | 1 (yes) |
| CC[C@H](C)C(=O)O[C@H]1C[C@H](O)C=C2C=C[C@H](C)[C@H](CC[C@@H](O)C[C@@H](O)CC(=O)O)[C@H]21 | 0 (no) |
| CCCCCCCCCCCCCCO | 0 (no) |
| CCCCCCOC(=O)CC(CC(=O)OCCCCCC)(OC(=O)CCC)C(=O)OCCCCCC | 0 (no) |
| CNC(C)=O | 0 (no) |
| C[C@]12C=CC(=O)C=C1CC[C@H]1[C@@H]3C[C@@H](O)[C@](O)(C(=O)CO)[C@@]3(C)C[C@H](O)[C@@]12F | 0 (no) |
| COS(C)(=O)=O | 0 (no) |
| CCOC(N)=O | 0 (no) |
| C=CN1CCCC1=O | 0 (no) |
| Cn1c(=O)c2[nH]cnc2n(C)c1=O | 0 (no) |
| CC1(C)C(=O)N(Cl)C(=O)N1Cl | 0 (no) |
| COc1cc2c(c(OC)c1OC)-c1ccc(OC)c(=O)cc1[C@@H](NC(C)=O)CC2 | 0 (no) |
| Cc1nc(-c2ccccn2)ncc1C(=O)Nn1cc(C)c2cc(F)ccc21 | 0 (no) |
| CCCOc1ccc(S(=O)(=O)N2CCN(CC)CC2)cc1-c1nc2c(CC)n(Cc3ccccn3)nc2c(=O)[nH]1 | 0 (no) |

* * *

Test: ATG_NRF2_ARE_CIS: Attagene CIS-FACTORIAL HepG2 Assay for human Nuclear Factor Erythroid 2 Related Factor 2 (NFR2) response to Antioxidant Response Elements (ARE) (AID 2282992)
Settings: HepG2 Attagene ARE/NRF2 reporter, transcription factor activity; actives raise or lower the signal
Active and inactive are the calls of the source. The calls were made as follows: active = hit-call score of the fitted dose curve at least 0.9, where 1 is the maximum; inactive = score below 0.9.
Outcomes: Yes = active, No = inactive

| Molecule | Category |
| --- | --- |
| O=C(O)CO | No |
| COc1cc(C(C)C)c2c(c1)S(=O)(=O)N(COc1cc(=O)n3cccc(OCCN4CCCCC4)c3n1)C2=O | Yes |
| NNC(=O)c1ccncc1 | No |
| O=C(O)[C@H](O)[C@@H](O)C(=O)O | No |
| O=C(O)c1ccc2c(c1)nc(C(=O)NC1CCN(C3CC3)CC1)n2Cc1cc(-c2ccc(Cl)s2)on1 | No |
| CCCCC(CC)C(=O)OCCOCCOCCOC(=O)C(CC)CCCC (centres undefined) | No |
| c1ccc2cc3ccccc3cc2c1 | No |
| OC[C@H]1O[C@@H]2O[C@H]3[C@H](O)[C@@H](O)[C@@H](O[C@H]4[C@H](O)[C@@H](O)[C@@H](O[C@H]5[C@H](O)[C@@H](O)[C@@H](O[C@H]6[C@H](O)[C@@H](O)[C@@H](O[C@H]7[C@H](O)[C@@H](O)[C@@H](O[C@H]1[C@H](O)[C@H]2O)O[C@@H]7CO)O[C@@H]6CO)O[C@@H]5CO)O[C@@H]4CO)O[C@@H]3CO | No |
| Cc1cccc(O)c1C | No |
